biological target: UniProtKB P30561; assay: AhR ligand screening: AhRE-luciferase reporter in transfected Hepa1 cells; format: cell-based; conditions: luciferase expression at 100 nM test compound relative to 100 nM benchmark compound 11-cl-BBQ
Catalogue of Fold relative to benchmark @ 100 nM readings, one per entry.
assayReadout: Fold relative to benchmark @ 100 nM (fold)

1) O=C(c1ccccc1)n1c(-c2ccc(F)c3ccccc23)nc2cc(Cl)ccc21 [Compound 863]	0.07
2) O=C(c1ccc(F)c(F)c1)n1c(-c2csc3ccccc23)nc2ccc(Cl)cc21 [Compound 862]	0.07
3) COc1ccc(C(=O)n2c(-c3cccc4ccccc34)nc3cc(Cl)ccc32)cc1OC [Compound 682]	0.69
4) O=C(c1ccc(F)c(F)c1)n1c(-c2c3ccccc3cc3ccccc23)nc2cc(Cl)ccc21 [Compound 641]	0.11
5) O=C(c1ccc(F)c(F)c1)n1c(-c2ccc(F)c3ccccc23)nc2cc(Cl)ccc21 [Compound 792]	0.08
6) O=C(c1cnc2ccccc2c1)n1c(-c2cccc3ccccc23)nc2cc(Cl)ccc21 [Compound 855]	1.14
7) O=C(c1ccc2nc(-c3cccc4ccccc34)n(Cc3cccc4ccccc34)c2c1)N1CCOCC1 [Compound 1409]	0.03
8) COC(=O)c1ccc2[nH]c(-c3cccc4ccccc34)nc2c1 [Compound 1360]	0.07
9) Clc1ccc2nc(-c3cccc4ccccc34)n(Cc3ccncc3)c2c1 [Compound 877]	0.06
10) N#Cc1ccc(C(=O)n2c(-c3cccc4ccccc34)nc3cc(Cl)ccc32)cc1 [Compound 688]	1.08
11) COc1ccc(C(=O)n2c(-c3cccc4ccccc34)nc3ccc(Cl)cc32)cc1 [Compound 536]	0.98
12) O=C(c1cccc(Cl)c1Cl)c1c[nH]c2ccc(Cl)cc12 [Compound 889]	0.02
13) O=C(c1ccc(F)cc1)n1c(-c2cccc3ccccc23)nc2cc(Cl)ccc21 [Compound 586]	1.33
14) O=C(c1ccc(F)c(F)c1)n1c(-c2cccc3ccccc23)nc2cc(Cl)ccc21 [Compound 530]	0.98
15) O=C(c1ccccc1)n1c(-c2cccc3ccccc23)nc2cc(Cl)c(Cl)cc21 [Compound 693]	1.23
16) O=C(c1ccncc1)n1c(-c2ccccc2)nc2ccc(Cl)cc21 [Compound 431]	0.03
17) COC(=O)c1ccc2c(c1)nc(-c1cccc3ccccc13)n2S(=O)(=O)c1ccc(C(F)(F)F)cc1 [Compound 1401]	0.03

====

Catalogue of Fold @ 10 uM readings, one per entry.
biological target: aryl hydrocarbon receptor (AhR) (Mus musculus (Mouse)); experiment: AhR ligand screening: AhRE-luciferase reporter in transfected Hepa1 cells; format: cell-based; conditions: fold change of luciferase expression at 10 uM test compound relative to vehicle (0.1% DMSO)
Sequence (P30561 10-805): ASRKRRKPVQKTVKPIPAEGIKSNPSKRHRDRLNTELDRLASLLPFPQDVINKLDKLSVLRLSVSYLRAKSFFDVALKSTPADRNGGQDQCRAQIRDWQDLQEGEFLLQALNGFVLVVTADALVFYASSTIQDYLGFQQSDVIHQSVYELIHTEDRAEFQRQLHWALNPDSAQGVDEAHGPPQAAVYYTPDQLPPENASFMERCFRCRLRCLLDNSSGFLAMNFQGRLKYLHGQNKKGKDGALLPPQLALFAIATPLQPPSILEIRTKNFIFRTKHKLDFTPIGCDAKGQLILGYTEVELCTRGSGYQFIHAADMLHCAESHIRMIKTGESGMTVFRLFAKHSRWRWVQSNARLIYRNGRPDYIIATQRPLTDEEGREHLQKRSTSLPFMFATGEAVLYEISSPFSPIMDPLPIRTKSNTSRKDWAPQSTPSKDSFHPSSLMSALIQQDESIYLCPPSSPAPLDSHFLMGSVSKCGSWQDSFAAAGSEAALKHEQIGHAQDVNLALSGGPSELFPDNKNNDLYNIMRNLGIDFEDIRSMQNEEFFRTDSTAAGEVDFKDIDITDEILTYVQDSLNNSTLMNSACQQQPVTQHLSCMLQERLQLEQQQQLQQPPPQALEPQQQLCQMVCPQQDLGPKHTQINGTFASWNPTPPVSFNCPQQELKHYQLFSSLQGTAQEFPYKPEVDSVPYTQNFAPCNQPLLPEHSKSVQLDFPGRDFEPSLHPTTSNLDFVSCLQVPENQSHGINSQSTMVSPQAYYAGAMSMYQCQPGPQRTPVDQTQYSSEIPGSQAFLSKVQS
Sequence (P53762 whole entry partner): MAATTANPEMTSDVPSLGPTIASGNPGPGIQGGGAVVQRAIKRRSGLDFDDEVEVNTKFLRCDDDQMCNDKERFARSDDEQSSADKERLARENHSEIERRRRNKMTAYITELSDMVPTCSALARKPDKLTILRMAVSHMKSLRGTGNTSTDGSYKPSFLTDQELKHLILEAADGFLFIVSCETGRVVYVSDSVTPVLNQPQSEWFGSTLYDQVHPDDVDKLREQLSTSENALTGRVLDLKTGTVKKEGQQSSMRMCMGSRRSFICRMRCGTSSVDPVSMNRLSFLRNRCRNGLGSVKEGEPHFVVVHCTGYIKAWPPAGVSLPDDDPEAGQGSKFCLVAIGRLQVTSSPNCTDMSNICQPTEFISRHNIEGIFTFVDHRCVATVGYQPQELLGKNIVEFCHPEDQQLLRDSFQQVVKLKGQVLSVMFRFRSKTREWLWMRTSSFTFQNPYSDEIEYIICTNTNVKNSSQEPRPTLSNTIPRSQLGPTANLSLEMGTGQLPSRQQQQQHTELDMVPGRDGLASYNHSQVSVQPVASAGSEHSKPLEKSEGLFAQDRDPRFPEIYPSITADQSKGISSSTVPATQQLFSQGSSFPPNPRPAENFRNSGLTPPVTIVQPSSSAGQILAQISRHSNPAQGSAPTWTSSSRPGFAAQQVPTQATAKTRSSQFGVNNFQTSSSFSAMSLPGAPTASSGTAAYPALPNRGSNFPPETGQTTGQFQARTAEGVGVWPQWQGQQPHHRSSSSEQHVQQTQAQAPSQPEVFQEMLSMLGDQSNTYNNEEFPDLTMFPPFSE
assayReadout: Fold @ 10 uM (fold)

1) O=C(c1ccc2nc(-c3cccc4ccccc34)n(S(=O)(=O)c3ccc4ccccc4c3)c2c1)N1CCCCC1	5
2) O=C(c1ccccc1)n1c(-c2cccc(C(F)(F)F)c2)nc2cc(Cl)ccc21	22
3) O=C(C1CC1)n1c(-c2cccc3ccccc23)nc2ccc(Cl)cc21	28
4) Cc1ccc(C(=O)n2c(-c3cccc4ccccc34)nc3ccc(Cl)cc32)cc1	30

====

Catalogue of microsomal CLint at 1 μM readings, one per entry.
experiment: Liver microsomal stability, rat; settings: rat, liver microsomes, pH 7.4
assayReadout: microsomal CLint at 1 μM

1) O=c1c2cccc3cccc(c32)c2nc3cc(Cl)ccc3n12 [Compound 362]	121 µL/min/mg
2) O=C(C1CC1)n1c(-c2cccc3ccccc23)nc2ccc(Cl)cc21 [Compound 774]	43.5 µL/min/mg
3) O=C(c1cccc2ccccc12)C1CN(C(=O)c2ccccc2)c2ccc(Cl)cc21 (centres unmarked) [Compound 521]	56 µL/min/mg
4) O=C(c1ccc(SC(F)(F)F)cc1)c1c[nH]c2ccc(Cl)cc12 [Compound 884]	96.7 µL/min/mg
5) Clc1ccc2[nH]c(-c3cccc4ccccc34)cc2c1 [Compound 893, 5-chloro-2-(naphthalen-1-yl)-1H-indole]	38.8 µL/min/mg
